Data provenance: PubChem BioAssay (NCI)

- System: MDA-MB-468 breast
- TEST_METHOD_NOTES: NCI tumour cell line growth inhibition, 48 h; in the data active = GI50 below about 0.43 µM; inactive = the rest
Possible outcomes: YES for active, NO for inactive

[
  {
    "COMPOUND": "N#Cc1cnc(Nc2cc(NC[C@H]3CNCCO3)c(C(F)(F)F)cn2)cn1",
    "CATEGORY_LABEL": "NO"
  },
  {
    "COMPOUND": "Cc1cc(Nc2nc(N[C@@H](C)c3ncc(F)cn3)ncc2Cl)n[nH]1",
    "CATEGORY_LABEL": "NO"
  },
  {
    "COMPOUND": "O=S(=O)(Nc1ccc(I)c(Cl)c1)c1ccc(-c2cnc(C3CC3)o2)cc1",
    "CATEGORY_LABEL": "YES"
  },
  {
    "COMPOUND": "CSc1nc2c(c(=O)n1C)CN(C1CCCCC1)C(=O)C(c1ccccc1)N2 (stereo not given)",
    "CATEGORY_LABEL": "NO"
  },
  {
    "COMPOUND": "CCNC(=O)Oc1ccc(/C(=C(/C)Cc2ccc(OC)cc2)c2ccc(OCCN(CC)CC)cc2)cc1",
    "CATEGORY_LABEL": "NO"
  }
]
